test system: MOLM13 cells; assay: Growth inhibition, MTS assay, MOLM13; assay type: cell-based, Human; settings: Homo sapiens, MOLM-13; 72 hours, MTS cell viability; read-out: MOLM 13 ED50
Structures can show the parent of a compound that is named as a salt.
measured.metric: pIC50
// returns pIC50 (minus log10 of molar concentration), number only

compound	pIC50
CCn1c(N2CCC(N)CC2)nc2c(C#N)c(Br)c(Br)cc21	5.00
CC(C)n1c(NC2CCC(N)CC2)nc2c(C#N)c(Br)c(Br)cc21 (stereo not drawn)	5.19
CC(C)n1c(N2CCNCC2)nc2c(C#N)c(Br)c(Br)cc21	6.00

Q: Given CCn1c(N2CCC[C@H](N)C2)nc2c(C#N)c(Br)c(Br)cc21 , state its recorded pIC50.
Ans: 5.55

Q: Given CC(C)n1c(N2CCNCC2)nc2c([N+](=O)[O-])c(Br)c(Br)cc21 [Example 2A, hydrochloride] , state its recorded pIC50.
Ans: 6.60

Q: Given CCn1c(N2CCNCC2)nc2c([N+](=O)[O-])c(Br)c(Br)cc21 [Example 1A, hydrochloride] , state its recorded pIC50.
Ans: 6.15

* * *

molecular target: DYRK1 (Homo sapiens (Human)); assay: ADP-Glo Kinase Assay, DYRK1; format: biochemical; details: 1 μM compound; read-out: DYRK1A % INH (1 μM)
Counter-ions that a name gives are not always drawn.
measured.metric: inhibition at 1 µM (%)
Your answer is read as %, so omit the unit and give the number.

compound	inhibition at 1 µM / %
CC(C)n1c(N2CCOCC2)nc2c([N+](=O)[O-])c(Br)c(Br)cc21 [Example 22K]	28
NCCn1c(N2CC[C@H](N)C2)nc2c([N+](=O)[O-])c(Br)c(Br)cc21	18
CC(C)n1c(N2CCNC(CO)C2)nc2c([N+](=O)[O-])c(Br)c(Br)cc21 (stereo not shown) [Example 22AD]	31

Q: Given CCn1c(N2CCNCC2)nc2c([N+](=O)[O-])c(Br)c(Br)cc21 [Example 1A, hydrochloride] , state its recorded inhibition at 1 µM.
Ans: 66

* * *

target: hERG potassium channel (Homo sapiens (Human)); experiment: hERG automated patch clamp assay (QPatch HT)
Sequence (Q12809 whole entry): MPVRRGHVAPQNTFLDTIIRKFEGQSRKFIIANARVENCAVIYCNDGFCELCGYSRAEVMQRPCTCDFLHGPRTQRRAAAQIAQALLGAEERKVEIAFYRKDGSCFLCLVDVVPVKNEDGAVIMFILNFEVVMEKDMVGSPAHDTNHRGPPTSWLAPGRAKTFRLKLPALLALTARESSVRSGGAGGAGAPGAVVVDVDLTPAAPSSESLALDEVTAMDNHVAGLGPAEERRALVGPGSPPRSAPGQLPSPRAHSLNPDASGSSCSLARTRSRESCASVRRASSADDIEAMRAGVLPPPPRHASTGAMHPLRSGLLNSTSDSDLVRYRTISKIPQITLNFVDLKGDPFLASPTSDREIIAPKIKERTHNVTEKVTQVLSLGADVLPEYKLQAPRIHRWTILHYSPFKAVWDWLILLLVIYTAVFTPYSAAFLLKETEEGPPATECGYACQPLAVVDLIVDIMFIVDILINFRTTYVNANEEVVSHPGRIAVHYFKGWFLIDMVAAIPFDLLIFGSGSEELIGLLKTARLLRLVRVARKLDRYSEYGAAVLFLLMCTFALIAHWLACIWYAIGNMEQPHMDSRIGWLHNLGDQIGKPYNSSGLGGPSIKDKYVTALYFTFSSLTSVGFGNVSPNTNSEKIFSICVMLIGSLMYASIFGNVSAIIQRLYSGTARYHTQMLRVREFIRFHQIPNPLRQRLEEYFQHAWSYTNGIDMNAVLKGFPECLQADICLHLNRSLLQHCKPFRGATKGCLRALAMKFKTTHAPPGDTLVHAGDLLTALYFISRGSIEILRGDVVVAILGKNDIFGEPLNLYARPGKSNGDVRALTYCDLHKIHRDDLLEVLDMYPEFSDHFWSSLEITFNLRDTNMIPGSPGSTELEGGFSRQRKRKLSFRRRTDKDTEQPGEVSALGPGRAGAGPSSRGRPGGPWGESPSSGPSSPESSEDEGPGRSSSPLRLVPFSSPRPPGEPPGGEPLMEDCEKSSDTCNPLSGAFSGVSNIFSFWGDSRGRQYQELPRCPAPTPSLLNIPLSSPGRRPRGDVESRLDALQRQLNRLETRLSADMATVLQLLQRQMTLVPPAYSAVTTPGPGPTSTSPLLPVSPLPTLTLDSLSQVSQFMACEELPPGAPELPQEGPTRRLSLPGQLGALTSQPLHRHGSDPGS
Reported IC50 is given for each of the following molecules.
Answer format reminder: number followed by unit.

Answered cases to consult:
molecule	IC50
CC(C)n1c(N[C@@H]2CCCNC2)nc2c([N+](=O)[O-])c(Br)c(Br)cc21 [Example 1AS]	5770 nM
CCn1c(NCCN)nc2c([N+](=O)[O-])c(Br)c(Br)cc21 [Example 1AL]	2420 nM
CCn1c(N2CCN(CCCN3CCNCC3)CC2)nc2c([N+](=O)[O-])c(Br)c(Br)cc21 [Example 22R]	1780 nM

Q: Given CC(C)n1c(N2CCNC[C@H]2C)nc2c([N+](=O)[O-])c(Br)c(Br)cc21 [Example 1AX] , state its recorded IC50.
Ans: 1230 nM

Q: Given CCn1c(N[C@H]2CCCNC2)nc2c([N+](=O)[O-])c(Br)c(Br)cc21 [Example 1AA] , state its recorded IC50.
Ans: 2270 nM

* * *

test system: HepG2 cells; assay: Growth inhibition, MTS assay, HepG2; type: cell-based, Human; conditions: Homo sapiens, HepG2, 72 h, MTS cell viability, read-out: HepG2 ED50
Where a name gives a salt, the structure may show the parent alone.
Reported IC50 is given for each of the following molecules.
Your answer is read as nM, so omit the unit and give the number.

Q: Given CCn1c(N2CC[C@H](N)C2)nc2c(C#N)c(Br)c(Br)cc21 , state its recorded IC50.
Ans: 1200

Q: Given CC(C)n1c(N2CCOC(CN)C2)nc2c(C#N)c(Br)c(Br)cc21 (centres unmarked) , state its recorded IC50.
Ans: 4500

Q: Given O=[N+]([O-])c1c(Br)c(Br)cc2c1nc(N1CCNCC1)n2CCN1CCNCC1 [Example 2C, hydrochloride] , state its recorded IC50.
Ans: 7000
